Origin of measurements: paper PMC12802937

Assay target: T1, Bre1-LR V382N (budding yeast, UniProt Q07457 227-700, V382N)
T1 construct: source: E. coli BL21 Rosetta (DE3), purified (Ni-NTA, heparin, gel filtration)
T1 sequence (looked up): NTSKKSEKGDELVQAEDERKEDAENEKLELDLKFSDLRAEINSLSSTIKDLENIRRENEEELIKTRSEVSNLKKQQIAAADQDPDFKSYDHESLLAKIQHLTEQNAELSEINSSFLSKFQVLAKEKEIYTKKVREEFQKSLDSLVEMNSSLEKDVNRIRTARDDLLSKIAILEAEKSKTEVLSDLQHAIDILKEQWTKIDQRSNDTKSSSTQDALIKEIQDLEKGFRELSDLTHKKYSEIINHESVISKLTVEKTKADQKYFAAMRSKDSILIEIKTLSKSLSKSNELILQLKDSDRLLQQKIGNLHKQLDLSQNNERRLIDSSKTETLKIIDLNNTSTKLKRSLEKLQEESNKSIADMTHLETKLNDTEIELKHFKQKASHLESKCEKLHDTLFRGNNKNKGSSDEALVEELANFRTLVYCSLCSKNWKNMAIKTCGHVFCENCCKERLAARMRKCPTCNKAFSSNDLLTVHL
Method summary: SPR; Lge1-CT immobilised on a CM5 chip, Bre1-LR flown over; Biacore 8K, 25°C, 20 mM HEPES (pH 7.5), 200 mM sodium chloride, 0.02% Tween 20
Applied conditions: both partners purified
Endpoint name: Kd (nM)
// return numeric value only (unit: nM, not printed)

Prompt line: What does the record list as Kd for Lge1-CT (Lge1 residues 261–332), intein-chitin binding domain (CBD) tag construct (domain or fragment, budding yeast, UniProt Q02796 261-332, looked up, Lge1, budding yeast, residues 261-332; residues 268–331 resolved in the electron density; the intein-CBD tag is named on the protein in the pull-down; also called intein-CBD-fused Lge1-CT; intein-CBD-tagged Lge1-CT; source: E. coli BL21 Rosetta (DE3): cleared cell extract on chitin resin (pull-down); purified (chitin, heparin, gel filtration) for ITC and SPR; co-purified with Bre1-LR for the …) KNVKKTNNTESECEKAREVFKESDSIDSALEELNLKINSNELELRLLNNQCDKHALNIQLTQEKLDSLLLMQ ?
Response line: 63
